# CONDITION LABEL: 293.15 K; 1000 kPa; Liquid
Let's look at some compounds and their measured mass density.
Kindly answer with a numeric value in kg/m3, unit omitted.

Below, 4 compounds whose answers are already recorded.
{"columns": ["COMPOUND", "mass density (kg/m3)"],
 "data": [
  ["CCCCCCCCCCCCCC[P+](CCCCCC)(CCCCCC)CCCCCC.[Br-] [tetradecyltrihexylphosphonium bromide]", 957.1],
  ["CCCCCCCCCCCCCC[P+](CCCCCC)(CCCCCC)CCCCCC.CS(=O)(=O)[O-] [trihexyltetradecylphosphonium methanesulfonate]", 932.3],
  ["CCCCCCCCCCCCCC[P+](CCCCCC)(CCCCCC)CCCCCC.[Cl-] [trihexyl(tetradecyl)phosphonium chloride]", 892.9],
  ["CCCCCCCCCCCCCC[P+](CCCCCC)(CCCCCC)CCCCCC.O=S(=O)([N-]S(=O)(=O)C(F)(F)F)C(F)(F)F", 1070.5]
]}

// next item, mass density requested
Form field: reported mass density of CCCCCCCCCCCCCC[P+](CCCCCC)(CCCCCC)CCCCCC.N#C[N-]C#N [tetradecyl(trihexyl)phosphonium dicyanamide]
902.1

* * *

# CONDITION LABEL: 303.15 K; 15000 kPa; Liquid
± gives the expanded uncertainty stated by the source.
# key: entry, value: mass density
Kindly report the value followed by its unit.

Any idea what mass density was measured for CCCCCCCCCCCCCC[P+](CCCCCC)(CCCCCC)CCCCCC.O=S(=O)([N-]S(=O)(=O)C(F)(F)F)C(F)(F)F ?
1071.8 ± 1.1 kg/m3

For the molecule CCCCCCCCCCCCCC[P+](CCCCCC)(CCCCCC)CCCCCC.[Br-] [tetradecyltrihexylphosphonium bromide] , what mass density is on record?
958.6 ± 0.8 kg/m3

Look up mass density for this molecule: CCCCCCCCCCCCCC[P+](CCCCCC)(CCCCCC)CCCCCC.[Cl-] [trihexyl(tetradecyl)phosphonium chloride]
894 ± 1.2 kg/m3

Need mass density of CCCCCCCCCCCCCC[P+](CCCCCC)(CCCCCC)CCCCCC.N#C[N-]C#N [tetradecyl(trihexyl)phosphonium dicyanamide] , thanks.
903 ± 1.2 kg/m3

Please look up its mass density: CCCCCCCCCCCCCC[P+](CCCCCC)(CCCCCC)CCCCCC.CS(=O)(=O)[O-] [trihexyltetradecylphosphonium methanesulfonate]
934 ± 1 kg/m3

* * *

Reported mass density by item:
# CONDITION LABEL: 293.15 K; 10000 kPa; Liquid
Hi! Could you send only the number? It should be in kg/m3, unit omitted.

{"columns": ["MOLECULE", "mass density, kg/m3"],
 "data": [
  ["CCCCCCCCCCCCCC[P+](CCCCCC)(CCCCCC)CCCCCC.[Br-] [tetradecyltrihexylphosphonium bromide]", 961.9]
]}

Returns the measured mass density for the input molecule. Input: CCCCCCCCCCCCCC[P+](CCCCCC)(CCCCCC)CCCCCC.N#C[N-]C#N [tetradecyl(trihexyl)phosphonium dicyanamide]
906.3

Using the record for CCCCCCCCCCCCCC[P+](CCCCCC)(CCCCCC)CCCCCC.CS(=O)(=O)[O-] [trihexyltetradecylphosphonium methanesulfonate] , report its mass density.
937.1

Name the recorded mass density for CCCCCCCCCCCCCC[P+](CCCCCC)(CCCCCC)CCCCCC.O=S(=O)([N-]S(=O)(=O)C(F)(F)F)C(F)(F)F .
1075.9

Could you tell me which mass density is on file for CCCCCCCCCCCCCC[P+](CCCCCC)(CCCCCC)CCCCCC.[Cl-] [trihexyl(tetradecyl)phosphonium chloride] ?
897.3

* * *

Listed here: items and their measured mass density.
# CONDITION LABEL: 293.15 K; 15000 kPa; Liquid
Number only, in kg/m3; omit the unit.

Worked set:
{"columns": ["MOLECULE", "READOUT UNIT", "mass density"],
 "data": [
  ["CCCCCCCCCCCCCC[P+](CCCCCC)(CCCCCC)CCCCCC.CS(=O)(=O)[O-] [trihexyltetradecylphosphonium methanesulfonate]", "kg/m3", 939.7],
  ["CCCCCCCCCCCCCC[P+](CCCCCC)(CCCCCC)CCCCCC.N#C[N-]C#N [tetradecyl(trihexyl)phosphonium dicyanamide]", "kg/m3", 908.5],
  ["CCCCCCCCCCCCCC[P+](CCCCCC)(CCCCCC)CCCCCC.[Br-] [tetradecyltrihexylphosphonium bromide]", "kg/m3", 964.5],
  ["CCCCCCCCCCCCCC[P+](CCCCCC)(CCCCCC)CCCCCC.[Cl-] [trihexyl(tetradecyl)phosphonium chloride]", "kg/m3", 899.6]
]}

Would you kindly look at the next entry?
Requested read-out: mass density. Entry: CCCCCCCCCCCCCC[P+](CCCCCC)(CCCCCC)CCCCCC.O=S(=O)([N-]S(=O)(=O)C(F)(F)F)C(F)(F)F
1078.6

* * *

# CONDITION LABEL: 333.15 K; 5000 kPa; Liquid
QUANTITY: mass density (kg/m3)
Numbers only; they are read as kg/m3.

{"columns": ["COMPOUND", "mass density, kg/m3"],
 "data": [
  ["CCCCCCCCCCCCCC[P+](CCCCCC)(CCCCCC)CCCCCC.[Cl-] [trihexyl(tetradecyl)phosphonium chloride]", 871.8]
]}

Looking for the measured mass density of CCCCCCCCCCCCCC[P+](CCCCCC)(CCCCCC)CCCCCC.O=S(=O)([N-]S(=O)(=O)C(F)(F)F)C(F)(F)F , can you help?
1044.4

Given CCCCCCCCCCCCCC[P+](CCCCCC)(CCCCCC)CCCCCC.N#C[N-]C#N [tetradecyl(trihexyl)phosphonium dicyanamide] , state its recorded mass density.
881.3

Recorded mass density for CCCCCCCCCCCCCC[P+](CCCCCC)(CCCCCC)CCCCCC.CS(=O)(=O)[O-] [trihexyltetradecylphosphonium methanesulfonate] , please?
910.6

Dear colleague, I am looking for the recorded mass density of the following compound: CCCCCCCCCCCCCC[P+](CCCCCC)(CCCCCC)CCCCCC.[Br-] [tetradecyltrihexylphosphonium bromide]
934.9

* * *

# mass density values compiled below
# CONDITION LABEL: 293.15 K; 40000 kPa; Liquid
Reply with just the number (in kg/m3).

Field: example entries. Status: answers known.
{"columns": ["COMPOUND", "mass density / kg/m3"],
 "data": [
  ["CCCCCCCCCCCCCC[P+](CCCCCC)(CCCCCC)CCCCCC.CS(=O)(=O)[O-] [trihexyltetradecylphosphonium methanesulfonate]", 951.6],
  ["CCCCCCCCCCCCCC[P+](CCCCCC)(CCCCCC)CCCCCC.O=S(=O)([N-]S(=O)(=O)C(F)(F)F)C(F)(F)F", 1091.5],
  ["CCCCCCCCCCCCCC[P+](CCCCCC)(CCCCCC)CCCCCC.N#C[N-]C#N [tetradecyl(trihexyl)phosphonium dicyanamide]", 918.9],
  ["CCCCCCCCCCCCCC[P+](CCCCCC)(CCCCCC)CCCCCC.[Cl-] [trihexyl(tetradecyl)phosphonium chloride]", 910.3]
]}

I have this compound here, CCCCCCCCCCCCCC[P+](CCCCCC)(CCCCCC)CCCCCC.[Br-] [tetradecyltrihexylphosphonium bromide] , and I need its recorded mass density.
976.5

* * *

# CONDITION LABEL: 333.15 K; 35000 kPa; Liquid
Numbers after ± are expanded uncertainties.
Each entry below carries its recorded mass density.
Note to self: number, then unit, no commentary.

{"columns": ["MOLECULE", "OBSERVED MEASUREMENT"],
 "data": [
  ["CCCCCCCCCCCCCC[P+](CCCCCC)(CCCCCC)CCCCCC.[Br-] [tetradecyltrihexylphosphonium bromide]", "952.3 ± 1.1 kg/m3"],
  ["CCCCCCCCCCCCCC[P+](CCCCCC)(CCCCCC)CCCCCC.CS(=O)(=O)[O-] [trihexyltetradecylphosphonium methanesulfonate]", "927.7 ± 1.4 kg/m3"],
  ["CCCCCCCCCCCCCC[P+](CCCCCC)(CCCCCC)CCCCCC.O=S(=O)([N-]S(=O)(=O)C(F)(F)F)C(F)(F)F", "1063.3 ± 1.4 kg/m3"],
  ["CCCCCCCCCCCCCC[P+](CCCCCC)(CCCCCC)CCCCCC.[Cl-] [trihexyl(tetradecyl)phosphonium chloride]", "887.3 ± 2 kg/m3"]
]}

Consider the additional molecule presented here.
Need mass density, item CCCCCCCCCCCCCC[P+](CCCCCC)(CCCCCC)CCCCCC.N#C[N-]C#N [tetradecyl(trihexyl)phosphonium dicyanamide]
896.2 ± 1.8 kg/m3

* * *

# CONDITION LABEL: 293.15 K; 3000 kPa; Liquid
Measured mass density accompanies every entry in the list below.
Give your result in kg/m3 as a bare value.

mass density for CCCCCCCCCCCCCC[P+](CCCCCC)(CCCCCC)CCCCCC.N#C[N-]C#N [tetradecyl(trihexyl)phosphonium dicyanamide] ?
903.1

Entry under review: CCCCCCCCCCCCCC[P+](CCCCCC)(CCCCCC)CCCCCC.[Br-] [tetradecyltrihexylphosphonium bromide] . Reported mass density?
958.1

Would you kindly share the measured mass density for CCCCCCCCCCCCCC[P+](CCCCCC)(CCCCCC)CCCCCC.[Cl-] [trihexyl(tetradecyl)phosphonium chloride] ?
893.9

Which value of mass density has been reported for CCCCCCCCCCCCCC[P+](CCCCCC)(CCCCCC)CCCCCC.CS(=O)(=O)[O-] [trihexyltetradecylphosphonium methanesulfonate] in the records?
933.4

What value of mass density has been reported for the following compound? CCCCCCCCCCCCCC[P+](CCCCCC)(CCCCCC)CCCCCC.O=S(=O)([N-]S(=O)(=O)C(F)(F)F)C(F)(F)F
1071.8
